Test: Pharmacokinetic study of CBZ in rat plasma
Format: in vivo, rat (Sprague Dawley)
Conditions: both, Sprague Dawley, rat, plasma, po, 10 mg/kg

{"columns": ["molecule", "Tmax, h"],
 "data": [
  ["NC(=O)N1c2ccccc2C=Cc2ccccc21 [CBZ, carbamazepine]", 3.5]
]}

* * *

Assay: Pharmacokinetic study of CBZ in rat plasma
Format: in vivo, rat (Sprague Dawley)
Details: both, Sprague Dawley, rat, plasma, po, 10 mg/kg
propertyLabel: k el

{"columns": ["molecule", "testResult"],
 "data": [
  ["NC(=O)N1c2ccccc2C=Cc2ccccc21 [CBZ, carbamazepine]", "5e-05 s⁻¹"]
]}

Measured values drawn from paper PMC10505864 for this set.
